# assay.protocol: Pharmacokinetics study
# Assay type: in vivo, Sprague–Dawley rats
# condition.description: male, Sprague-Dawley, rat, plasma, iv, 1 mg/kg
endpoint: AUC(0-inf) (ng·h/mL)
Numbers only, in ng·h/mL.

[in] What value of AUC(0-inf) has been reported for the following compound? CCN(CC)CCNC(=O)c1c(C)[nH]c(/C=C2\C(=O)Nc3ccc(F)cc32)c1C
[out] 145

###

# assay.protocol: Pharmacokinetics study
# Type: in vivo, Sprague–Dawley rats
# condition.description: male, Sprague-Dawley, rat, plasma, iv, 1 mg/kg
endpoint: half-life

[in] What value of half-life has been reported for the following compound? CCN(CC)CCNC(=O)c1c(C)[nH]c(/C=C2\C(=O)Nc3ccc(F)cc32)c1C
[out] 63 min

Source: paper PMC7049616
